Molecular target: D(1A) dopamine receptor (Homo sapiens) (UniProt P21728)
Sequence (P21728 whole entry): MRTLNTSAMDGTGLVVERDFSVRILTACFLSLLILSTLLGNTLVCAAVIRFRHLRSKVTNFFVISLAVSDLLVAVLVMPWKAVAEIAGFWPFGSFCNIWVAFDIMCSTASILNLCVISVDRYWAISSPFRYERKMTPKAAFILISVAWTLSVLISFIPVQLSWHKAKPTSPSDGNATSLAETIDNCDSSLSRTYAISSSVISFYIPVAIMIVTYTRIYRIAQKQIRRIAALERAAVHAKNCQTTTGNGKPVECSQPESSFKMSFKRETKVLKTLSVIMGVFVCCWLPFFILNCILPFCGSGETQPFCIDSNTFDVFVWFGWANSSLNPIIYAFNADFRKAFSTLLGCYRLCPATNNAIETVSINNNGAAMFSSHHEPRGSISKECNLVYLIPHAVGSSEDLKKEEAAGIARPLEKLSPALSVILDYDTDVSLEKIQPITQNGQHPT
Experiment: Inhibition of dopaminergic D1 receptor (unknown origin) at 10 uM relative to control

>  <record-smiles>
Cl.NCc1ccc(OCc2ccccc2OC(F)(F)F)cc1

>  <inhibition, %>
-2.5

$$$$
>  <record-smiles>
Cl.NCc1ccc(OCc2ccccc2F)cc1

>  <inhibition, %>
-0.2

$$$$
>  <record-smiles>
Cl.NCc1ccc(OCc2ccc(F)cc2)cc1

>  <inhibition, %>
-1.9

$$$$
>  <record-smiles>
Cl.NCc1ccc(OCc2cccc(Cl)c2)cc1

>  <inhibition, %>
2.9

$$$$
>  <record-smiles>
Cl.NCc1ccc(OCc2ccc(Cl)cc2)cc1

>  <inhibition, %>
7.6

$$$$
>  <record-smiles>
Cl.NCc1ccc(OCc2cccc(OC(F)(F)F)c2)cc1

>  <inhibition, %>
-3.3

$$$$
>  <record-smiles>
Cl.NCc1ccc(OCc2ccccc2)cc1

>  <inhibition, %>
-6

$$$$
>  <record-smiles>
Cl.NCc1ccc(OCc2ccc(OC(F)(F)F)cc2)cc1

>  <inhibition, %>
-9.4

$$$$
>  <record-smiles>
Cl.NCc1ccc(OCc2cccc(F)c2)cc1

>  <inhibition, %>
-1.1

$$$$

###

Biological target: Kappa-type opioid receptor (Homo sapiens)
Assay: Inhibition of kappa opioid receptor (unknown origin) at 10 uM relative to control
Label F if inhibition falls below 7%; label T in every other case.

>  <record-smiles>
Cl.NCc1ccc(OCc2ccc(F)cc2)cc1

>  <class-assignment>
T

$$$$
>  <record-smiles>
Cl.NCc1ccc(OCc2ccc(Cl)cc2)cc1

>  <class-assignment>
T

$$$$
>  <record-smiles>
Cl.NCc1ccc(OCc2ccc(OC(F)(F)F)cc2)cc1

>  <class-assignment>
F

$$$$
>  <record-smiles>
Cl.NCc1ccc(OCc2ccccc2OC(F)(F)F)cc1

>  <class-assignment>
F

$$$$
>  <record-smiles>
Cl.NCc1ccc(OCc2cccc(OC(F)(F)F)c2)cc1

>  <class-assignment>
T

$$$$
>  <record-smiles>
Cl.NCc1ccc(OCc2ccccc2F)cc1

>  <class-assignment>
F

$$$$
>  <record-smiles>
Cl.NCc1ccc(OCc2cccc(F)c2)cc1

>  <class-assignment>
F

$$$$
>  <record-smiles>
Cl.NCc1ccc(OCc2cccc(Cl)c2)cc1

>  <class-assignment>
T

$$$$
>  <record-smiles>
Cl.NCc1ccc(OCc2ccccc2)cc1

>  <class-assignment>
F

$$$$

###

Target: Alpha-2A adrenergic receptor (Homo sapiens) (UniProt P08913)
Sequence (whole entry): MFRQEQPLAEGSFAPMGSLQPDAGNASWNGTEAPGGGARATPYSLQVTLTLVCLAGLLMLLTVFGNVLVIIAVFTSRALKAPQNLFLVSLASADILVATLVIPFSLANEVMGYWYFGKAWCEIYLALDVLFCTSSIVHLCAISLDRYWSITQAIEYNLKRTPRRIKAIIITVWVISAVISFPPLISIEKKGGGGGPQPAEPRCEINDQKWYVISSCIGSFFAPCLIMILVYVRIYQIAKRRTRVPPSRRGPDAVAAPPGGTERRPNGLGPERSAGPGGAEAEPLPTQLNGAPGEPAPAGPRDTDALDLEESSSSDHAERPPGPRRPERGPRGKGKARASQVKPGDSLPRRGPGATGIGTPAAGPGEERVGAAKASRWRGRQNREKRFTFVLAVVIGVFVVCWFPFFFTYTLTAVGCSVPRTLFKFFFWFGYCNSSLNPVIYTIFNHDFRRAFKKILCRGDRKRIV
Assay: Inhibition of adrenergic alpha-2A receptor (unknown origin) at 10 uM relative to control
Label NOT MET if inhibition falls below 60%; label MET in every other case.

>  <record-smiles>
Cl.NCc1ccc(OCc2cccc(F)c2)cc1

>  <test-target>
Alpha-2A adrenergic receptor (Homo sapiens) (UniProt P08913)

>  <class-assignment>
NOT MET

$$$$
>  <record-smiles>
Cl.NCc1ccc(OCc2cccc(Cl)c2)cc1

>  <test-target>
Alpha-2A adrenergic receptor (Homo sapiens) (UniProt P08913)

>  <class-assignment>
MET

$$$$
>  <record-smiles>
Cl.NCc1ccc(OCc2ccc(OC(F)(F)F)cc2)cc1

>  <test-target>
Alpha-2A adrenergic receptor (Homo sapiens) (UniProt P08913)

>  <class-assignment>
NOT MET

$$$$
>  <record-smiles>
Cl.NCc1ccc(OCc2ccc(F)cc2)cc1

>  <test-target>
Alpha-2A adrenergic receptor (Homo sapiens) (UniProt P08913)

>  <class-assignment>
NOT MET

$$$$
>  <record-smiles>
Cl.NCc1ccc(OCc2cccc(OC(F)(F)F)c2)cc1

>  <test-target>
Alpha-2A adrenergic receptor (Homo sapiens) (UniProt P08913)

>  <class-assignment>
NOT MET

$$$$
>  <record-smiles>
Cl.NCc1ccc(OCc2ccc(Cl)cc2)cc1

>  <test-target>
Alpha-2A adrenergic receptor (Homo sapiens) (UniProt P08913)

>  <class-assignment>
MET

$$$$
>  <record-smiles>
Cl.NCc1ccc(OCc2ccccc2F)cc1

>  <test-target>
Alpha-2A adrenergic receptor (Homo sapiens) (UniProt P08913)

>  <class-assignment>
NOT MET

$$$$
>  <record-smiles>
Cl.NCc1ccc(OCc2ccccc2)cc1

>  <test-target>
Alpha-2A adrenergic receptor (Homo sapiens) (UniProt P08913)

>  <class-assignment>
NOT MET

$$$$
